// provenance: patent US10005733B2

- Experiment Description: Rodent Pharmacokinetics Studies
- Type: in vivo, rat
- Test Context: male, Han Wistar, rat, plasma, 5 mg/kg; rats; footnote (1): 5% DMSO/10% solutol in saline for both oral and intravenous routes; read-out: Bioavail, F (%)
Observation Type: bioavailability (%)
Express it in %; write the number only.

Exercise: For the molecule shown here, C[C@]1(O)CC[C@H](NS(=O)(=O)c2ccc(-c3ncc(Cl)cc3C#N)cc2)CC1 [HMC-N-05-A] , give the reported bioavailability.
Solution: 88

====

The following compounds are listed with their measured inhibition at 5 min, 10 µM values.
- Tgt: hERG ion channel (Homo sapiens, UniProt Q12809)
- Construct: expressed in transfected cells; host or cells: Chinese Hamster Ovary cells (hERG-CHO)
- Sequence (Q12809 whole entry): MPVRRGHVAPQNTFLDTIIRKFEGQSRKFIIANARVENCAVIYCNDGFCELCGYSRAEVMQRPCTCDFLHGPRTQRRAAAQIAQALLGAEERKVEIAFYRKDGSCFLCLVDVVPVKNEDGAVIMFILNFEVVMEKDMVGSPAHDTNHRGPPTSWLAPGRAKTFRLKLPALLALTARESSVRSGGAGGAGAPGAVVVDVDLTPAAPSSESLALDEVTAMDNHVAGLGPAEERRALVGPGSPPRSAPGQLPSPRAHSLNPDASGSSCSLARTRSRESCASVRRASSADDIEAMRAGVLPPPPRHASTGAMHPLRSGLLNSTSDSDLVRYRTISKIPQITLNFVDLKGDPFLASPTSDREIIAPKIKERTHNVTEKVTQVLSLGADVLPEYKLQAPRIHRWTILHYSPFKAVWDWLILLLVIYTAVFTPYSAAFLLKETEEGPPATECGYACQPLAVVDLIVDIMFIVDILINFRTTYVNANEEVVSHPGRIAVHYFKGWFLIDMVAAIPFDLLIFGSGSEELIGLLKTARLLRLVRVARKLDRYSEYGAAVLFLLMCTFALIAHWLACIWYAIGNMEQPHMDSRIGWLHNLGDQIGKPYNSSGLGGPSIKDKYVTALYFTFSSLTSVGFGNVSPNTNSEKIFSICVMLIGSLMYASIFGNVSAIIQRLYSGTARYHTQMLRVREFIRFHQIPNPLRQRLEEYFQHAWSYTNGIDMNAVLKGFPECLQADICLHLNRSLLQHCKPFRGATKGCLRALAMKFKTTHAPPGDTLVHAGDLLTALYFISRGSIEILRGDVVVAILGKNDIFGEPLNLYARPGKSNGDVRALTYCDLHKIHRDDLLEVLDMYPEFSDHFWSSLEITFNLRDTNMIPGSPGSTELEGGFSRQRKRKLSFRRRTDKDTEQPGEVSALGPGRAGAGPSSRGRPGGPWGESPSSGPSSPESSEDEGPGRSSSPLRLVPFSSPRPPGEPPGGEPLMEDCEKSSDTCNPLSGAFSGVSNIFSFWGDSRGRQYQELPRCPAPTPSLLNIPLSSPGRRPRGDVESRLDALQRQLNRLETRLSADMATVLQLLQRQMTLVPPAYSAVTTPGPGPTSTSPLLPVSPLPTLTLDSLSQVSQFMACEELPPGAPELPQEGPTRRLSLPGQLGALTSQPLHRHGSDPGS
- Experiment Description: hERG Ion Channel Assay (Q-patch, hERG-CHO cells)
- Assay type: cell-based
- Test Context: CHO cells stably transfected with hERG (hERG-CHO), pH 7.4, hERG tail current
Express it in %; write the number only.

Check out these entries, answers already filled in.
| Compound | Tgt | Units Label | inhibition at 5 min, 10 µM |
| --- | --- | --- | --- |
| C[C@]1(O)CC[C@H](NS(=O)(=O)c2ccc(-c3ccc(Cl)cc3C#N)c(F)c2)CC1 | hERG ion channel (Homo sapiens, UniProt Q12809) | % | 29 |
| C[C@]1(O)CC[C@H](NS(=O)(=O)c2ccc(-c3ccc(F)cc3F)cc2)CC1 | hERG ion channel (Homo sapiens, UniProt Q12809) | % | 15.1 |
| O=S(=O)(N[C@H]1CC[C@H](O)CC1)c1ccc(-c2ccc(F)cc2F)cc1 [ABD599, reference compound] | hERG ion channel (Homo sapiens, UniProt Q12809) | % | 74.9 |
| C[C@]1(O)CC[C@H](NS(=O)(=O)c2ccc(-c3ccc(C#N)cc3)c(F)c2)CC1 | hERG ion channel (Homo sapiens, UniProt Q12809) | % | 47 |
| C[C@]1(O)CC[C@H](NS(=O)(=O)c2ccc(-c3ncc(Cl)cc3C#N)cc2)CC1 | hERG ion channel (Homo sapiens, UniProt Q12809) | % | 35 |
| C[C@]1(O)CC[C@@H](NS(=O)(=O)c2ccc(-c3ccc(C#N)cc3)c(F)c2)CC1 | hERG ion channel (Homo sapiens, UniProt Q12809) | % | 40 |

Exercise: For the compound shown here, C[C@]1(O)CC[C@H](NS(=O)(=O)c2ccc(-c3ccc(C#N)cc3Cl)cc2)CC1 , give the reported inhibition at 5 min, 10 µM.
Solution: 57

Exercise: For the compound shown here, C[C@]1(O)CC[C@@H](NS(=O)(=O)c2ccc(-c3ccc(F)cc3F)cc2)CC1 [ABD899, reference compound] , give the reported inhibition at 5 min, 10 µM.
Solution: 85.2

====

- Tgt: CYP3A4 (Homo sapiens)
- Construct: purchased Cypex Ltd, Dundee, Scotland UK
- Sequence (P08684 whole entry): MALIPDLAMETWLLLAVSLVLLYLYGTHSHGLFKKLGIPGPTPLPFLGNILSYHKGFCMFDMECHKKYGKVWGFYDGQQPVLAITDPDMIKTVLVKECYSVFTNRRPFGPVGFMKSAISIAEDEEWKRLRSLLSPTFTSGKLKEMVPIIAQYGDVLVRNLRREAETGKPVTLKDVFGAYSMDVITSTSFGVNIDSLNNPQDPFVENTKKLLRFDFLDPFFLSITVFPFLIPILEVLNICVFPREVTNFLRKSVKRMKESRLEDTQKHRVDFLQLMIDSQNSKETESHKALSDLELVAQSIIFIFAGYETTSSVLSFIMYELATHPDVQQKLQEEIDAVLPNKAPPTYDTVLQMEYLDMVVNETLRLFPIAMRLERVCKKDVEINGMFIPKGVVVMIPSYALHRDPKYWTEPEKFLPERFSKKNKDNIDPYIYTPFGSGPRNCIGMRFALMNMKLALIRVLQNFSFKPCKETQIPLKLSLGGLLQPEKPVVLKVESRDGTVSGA
- Experiment Description: Human Cytochrome P450 Inhibition Assay (Bactosomes), CYP3A4
- Assay type: in vitro ADME
- Test Context: recombinant Bactosomes, probe substrate, 10 minutes at 37° C.
The following compounds are listed with their measured IC50 values.

Check out these entries, answers already filled in.
| Compound | IC50 |
| --- | --- |
| C[C@]1(O)CC[C@@H](NS(=O)(=O)c2ccc(-c3ccc(C#N)cc3)c(F)c2)CC1 | > 50 µM |
| O=S(=O)(N[C@H]1CC[C@H](O)CC1)c1ccc(-c2ccc(F)cc2F)cc1 [ABD599, reference compound] | > 25 µM |
| C[C@]1(O)CC[C@@H](NS(=O)(=O)c2ccc(-c3ccc(F)cc3F)cc2)CC1 [ABD899, reference compound] | 21.6 µM |
| C[C@]1(O)CC[C@H](NS(=O)(=O)c2ccc(-c3ncc(Cl)cc3C#N)cc2)CC1 | > 50 µM |
| C[C@]1(O)CC[C@@H](NS(=O)(=O)c2ccc(-c3cc(F)c(F)cc3F)cc2)CC1 | 9.2 µM |
| C[C@]1(O)CC[C@H](NS(=O)(=O)c2ccc(-c3ccc(C#N)cc3Cl)cc2)CC1 | 33 µM |
| C[C@]1(O)CC[C@H](NS(=O)(=O)c2ccc(-c3ccc(Cl)cc3C#N)c(Cl)c2)CC1 | 12 µM |
| Cc1cc(S(=O)(=O)N[C@H]2CC[C@H](O)CC2)ccc1-c1ccc(F)cc1F [ABD735, reference compound] | > 25 µM |
| C[C@]1(O)CC[C@H](NS(=O)(=O)c2ccc(-c3ccc(Cl)cc3C#N)c(F)c2)CC1 | 29 µM |

Next item in the queue.
Exercise: For the compound shown here, C[C@]1(O)CC[C@H](NS(=O)(=O)c2ccc(-c3ccc(C#N)cc3)c(F)c2)CC1 , give the reported IC50.
Solution: > 50 µM
